Test: Metabolic stability test in plasma
Type: in vitro ADME, human
Conditions: unchanged form after 10 minutes at 37°C in human plasma, LC/MS; read-out: Remaining rate in human plasma (%/10min)
Kindly state remaining at 10 min for each of the entries shown.
Field note: include the unit after the figure.

Task item: Specify measured remaining at 10 min for `COC(=O)c1ccc(-c2nc(C)ccc2C(=O)Nc2ccc(CCCC(=O)Oc3c(C)cc(C(=O)OC)cc3Cl)cc2C(=O)N(C)C)cc1` .
Reply: 25%

Task item: Identify measured remaining at 10 min corresponding to `COC(=O)c1ccc(OC(=O)CCCc2ccc(NC(=O)c3ccccc3-c3ccc(C(F)(F)F)cc3)c(C(=O)N(C)C)c2)cc1OC`
Reply: 0%

Task item: Return the recorded remaining at 10 min value; entry: `COC(=O)c1cc(C)c(OC(=O)CCCc2ccc(NC(=O)c3ccccc3-c3ccc(C(F)(F)F)cc3)c(C(=O)N(C)C)c2)c(Cl)c1`
Reply: 52%

Task item: Look up remaining at 10 min of `CCOC(=O)c1cc(C)c(OC(=O)CCCc2ccc(NC(=O)c3ccc(C)nc3-c3ccc(C(F)(F)F)cc3)c(C(=O)N(C)C)c2)c(Cl)c1` and report it.
Reply: 48%

Task item: Recall and state the measured remaining at 10 min for `COC(=O)c1ccc(OC(=O)CCCc2ccc(NC(=O)c3ccccc3-c3ccc(C(F)(F)F)cc3)c(C(=O)N(C)C)c2)c(Cl)c1` .
Reply: 0%

Task item: Look up and state reported remaining at 10 min for `COC(=O)c1ccc(OC(=O)CCCc2ccc(NC(=O)c3ccccc3-c3ccc(C(F)(F)F)cc3)c(C(=O)N(C)C)c2)cc1C`
Reply: 43%

====

Assay: Metabolic stability test in plasma
Assay type: in vitro ADME, human
Settings: unchanged form after 60 minutes at 37°C in human plasma, LC/MS; read-out: Remaining rate in human plasma (%/60min)
Answer each item with its documented remaining at 1 h.
Write your answer as a measured quantity: the number, then the unit.

Task item: Report remaining at 1 h for CCOC(=O)c1ccc(OC(=O)CCCc2ccc(NC(=O)c3ccccc3-c3ccc(C(F)(F)F)cc3)c(C(=O)N(C)C)c2)cc1 [Compound 1-6]
Reply: 0%

Task item: Please report remaining at 1 h for the following molecule: COC(=O)c1cc(C)c(OC(=O)CCCc2ccc(NC(=O)c3ccc(C)nc3-c3ccc(C(F)(F)F)cc3)c(C(=O)N(C)C)c2)c(OC)c1 [Compound 1-46]
Reply: 0%

Task item: Identify the reported remaining at 1 h for the following entry. CN(C)C(=O)c1cc(CCCC(=O)Oc2ccc(C(=O)OCc3ccc(Cl)cc3)cc2)ccc1NC(=O)c1ccccc1-c1ccc(C(F)(F)F)cc1 [Compound 1-79]
Reply: 0%

Task item: Consider the molecule COC(=O)c1cc(C(=O)OC(C)C)ccc1OC(=O)CCCc1ccc(NC(=O)c2ccc(C)nc2-c2ccc(C(F)(F)F)cc2)c(C(=O)N(C)C)c1 [Compound 1-72] and give its recorded remaining at 1 h.
Reply: 0%

Task item: Recall and state the measured remaining at 1 h for CN(C)C(=O)c1cc(CC(=O)Oc2ccc(F)cc2)ccc1NC(=O)c1ccccc1-c1ccc(C(F)(F)F)cc1 [Compound 1-4] .
Reply: 5%

Task item: Return reported remaining at 1 h. Input molecule: COC(=O)c1cc(C(=O)OC(C)C)cc(C)c1OC(=O)CCCc1ccc(NC(=O)c2ccc(C)nc2-c2ccc(C(F)(F)F)cc2)c(C(=O)N(C)C)c1 [Compound 1-111]
Reply: 0%

Task item: Item COc1cc(C(=O)OCC(=O)N(C)C)cc(Cl)c1OC(=O)CCCc1ccc(NC(=O)c2ccc(C)nc2-c2ccc(C(F)(F)F)cc2)c(C(=O)N(C)C)c1 [Compound 1-113] : provide remaining at 1 h
Reply: 0%

Task item: Find the measured remaining at 1 h of COC(=O)c1ccc(OC(=O)CCCc2ccc(NC(=O)c3ccccc3-c3ccc(C(F)(F)F)cc3)c(C(=O)N(C)C)c2)c(OC)c1 [Compound 1-12] and report it.
Reply: 0%

Task item: Provide remaining at 1 h value for the following molecule: Cc1cccc(COC(=O)c2ccc(OC(=O)CCCc3ccc(NC(=O)c4ccc(C)nc4-c4ccc(C(F)(F)F)cc4)c(C(=O)N(C)C)c3)cc2)n1 [Compound 1-100]
Reply: 0%

Task item: Find the measured remaining at 1 h of COC(=O)c1ccc(OC(=O)CCCc2ccc(NC(=O)c3ccccc3-c3ccc(C(=O)OC)cc3)c(C(=O)N(C)C)c2)cc1 [Compound 4-3] and report it.
Reply: 0%

Task item: Assign remaining at 1 h to the following record: CCOC(=O)c1cc(OC)c(OC(=O)CCCc2ccc(NC(=O)c3ccc(C)nc3-c3ccc(C(F)(F)F)cc3)c(C(=O)N(C)C)c2)c(OC)c1 [Compound 1-43]
Reply: 0%

Task item: Quote remaining at 1 h reported for CCOC(=O)c1cc(Cl)c(OC(=O)CCCc2ccc(NC(=O)c3ccc(C)nc3-c3ccc(C(F)(F)F)cc3)c(C(=O)N(C)C)c2)c(OC)c1 [Compound 1-48] please.
Reply: 0%
